- Test system: cancer cell lines classified IM, MSL, M
- test protocol: PRISM screen compound sensitivity correlated with IM, MSL and M subtype of cell lines (101 gene signature)
- Assay type: cell-based
- assay context: correlation of PRISM compound sensitivity with MSL subtype correlation; test cell set (188 cell lines)
measured metric: MSL Corr test
One number for each entry.

For the compound Nc1nccc2c1ncn2C1C=C(CO)C(O)C1O (centres unmarked) , what MSL Corr test is on record? 0.09034

For every item below, please supply its MSL Corr test.
1. O=C(O)CNC(=O)c1c(O)c2ccccc2n(Cc2ccccc2)c1=O
2. C=C(C)CN1CC[C@]23c4c5ccc(O)c4O[C@H]2c2[nH]c4ccccc4c2C[C@@]3(O)C1C5.Cl.O [SDM25N]
3. O=C(O)CCCN1C(=O)c2cccc3cccc(c23)C1=O
4. C[N+](C)(C)CC#CCN1CCCC1=O

1: 0.01906; 2: −0.06407; 3: −0.1039; 4: 0.09728
